Each recorded value in this set is attributed to paper PMC4135234.

Molecular target: T1, GST-FLAG-LIN28A (human, UniProt Q9H9Z2 1-209)
T1 sequence: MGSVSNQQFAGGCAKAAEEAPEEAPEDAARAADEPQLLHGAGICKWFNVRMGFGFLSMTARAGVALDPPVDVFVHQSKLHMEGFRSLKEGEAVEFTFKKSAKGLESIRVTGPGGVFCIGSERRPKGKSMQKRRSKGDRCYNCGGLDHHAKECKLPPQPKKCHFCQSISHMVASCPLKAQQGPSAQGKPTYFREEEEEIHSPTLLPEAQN
Assay: competition
READOUT_LABEL: IC50 (nM)
Numbers only here, please. The scale is nM.

The binder identified as GUAGUAGU (ssRNA) [MSI Oligo #5 (unlabeled MSI FP oligo)] registered its IC50 at 500
